Test system: SF-539 CNS
Experiment Notes: NCI-60 one-dose screen, 48 h
Conditions: 10 µM unless noted
Compounds without any hit were thinned out: in the full panel of roughly 83,000, 20% have a hit. Calls of active or inactive are those of the source. Rule for the calls: active = growth percent below 10; inactive = the rest.
Respond using exactly one of the listed classes: active, inactive

Here's what some known entries look like.
Compound: CCC(CC)NCC(C)(C)O
Answer Label: inactive
//
Compound: CCNc1nc2cc(Nc3ccnc4cc(Cl)ccc34)ccc2o1
Answer Label: inactive
//
Compound: Oc1ccc(C(c2ccc(O)cc2)c2ccc(Br)cn2)cc1
Answer Label: inactive
//
Compound: CCCCCCNC(=O)Oc1ccc(/C(=C(\C)c2ccccc2)c2ccc(OCCCN(C)C)cc2)cc1
Answer Label: inactive
//
Compound: CNC(=O)c1cccc(Cn2nc(C)c(NC(=O)c3ccc(COc4ccc(C(F)(F)F)cc4C)cc3)c2C)c1
Answer Label: inactive
//
Compound: COc1cc(C2C3=C(COC3=O)N(CCO)c3cc4c(cc32)CCC4)cc(OC)c1OC (stereo not given)
Answer Label: active
//
Compound: COc1cc2oc(-c3cccc(C(=O)Nc4ccc(Cl)cc4)c3)cc(=O)c2c(O)c1OC
Answer Label: inactive
//
Compound: CCCNC(=O)Oc1ccc(/C(=C(\C)c2ccccc2)c2ccc(OCCCN(C)C)cc2)cc1
Answer Label: inactive
//
Compound: O=C(CCN1CCCC1)Nc1ccc2c(Nc3ccc(Br)cc3)c3ccccc3nc2c1
Answer Label: active

*Q* # lookup: test call for O=C(NO)c1ccc(-n2nc(-c3ccccc3)c3ccccc32)cc1
*A* inactive

====

Test system: OVCAR-5 ovarian
Experiment Notes: NCI-60 one-dose screen, 48 h
Conditions: 10 µM unless noted
Compounds without any hit were thinned out: in the full panel of roughly 83,000, 20% have a hit. Calls of active or inactive are those of the source. How the source made its calls: active means growth percent below 10; inactive means the rest.
Respond using exactly one of the listed classes: YES for active, NO for inactive

Here's what some known entries look like.
Molecule: COc1ccc(C(=O)CSc2nc(-c3cc(OC)ccc3OC)cc(-c3ccc(Cl)cc3)c2C#N)cc1
Answer Label: NO
//
Molecule: COc1cc(/C=C/c2cc(O)c(C(C)=O)c(O)c2)cc2c1O[C@]1(C)CC[C@@H](O)C(C)(C)[C@H]1C2
Answer Label: NO
//
Molecule: COc1ccc(C(=O)Cn2c(C(=O)c3ccccc3)nc3ccccc32)cc1
Answer Label: NO
//
Molecule: NNC(=O)c1ccc(-n2nc(-c3ccccc3)c3ccccc32)cc1
Answer Label: NO
//
Molecule: CCN(CC)c1ccc(C(=O)c2ccccc2)cc1
Answer Label: NO

*Q* # lookup: test call for O=[N+]([O-])c1ccc(NC(=S)N/N=C/c2cc3ccccc3n3nnnc23)cc1
*A* NO

*Q* # lookup: test call for C=C(C)[C@@H]1CC[C@]2(C(=O)N3CCN(C)CC3)CC[C@]3(C)[C@H](CC[C@@H]4[C@@]5(C)CC[C@H](OCCC#N)C(C)(C)[C@@H]5CC[C@]43C)[C@@H]12
*A* NO

*Q* # lookup: test call for N#CC1=C(N)Oc2c(cnn2-c2ccc([N+](=O)[O-])cc2[N+](=O)[O-])C1c1ccccc1 (stereo unspecified)
*A* NO

*Q* # lookup: test call for C=CCN1C(=O)/C(=C/C(=O)OC)S/C1=N\NC(=O)c1cc2ccc1/C=C\c1ccc(cc1)/C=C\2
*A* NO

*Q* # lookup: test call for C[C@H]1[C@H](C)CC[C@]2(C(=O)Nc3ccc4ncccc4c3)CC[C@]3(C)C(=CC[C@@H]4[C@@]5(C)CCCNC(C)(C)[C@@H]5CC[C@]43C)[C@H]12
*A* NO

*Q* # lookup: test call for COc1ccc(C/C(C)=C(/c2ccc(OCCCN(C)C)cc2)c2ccc(OC(C)=O)cc2)cc1
*A* NO

*Q* # lookup: test call for COc1cc2nc(-c3ccc(Cl)cc3)cc(OCCCN3CCCC3)c2cc1OC
*A* NO

*Q* # lookup: test call for CCc1ccc(CNc2ccc(N3CCOCC3)c(C(=O)O)c2)cc1
*A* NO

Source: PubChem BioAssay (NCI)
